# measured-on: human TSLP (human, UniProt Q969D9 29-159)
# test-summary: cell-based or functional assay
endpoint-label: IC50 TARC (nM)
Your answer should be a plain number; it is taken to be in nM.

Recorded results for 2 binders are shown here.
[
  {
    "binder": "BDG38.137 (antibody, V domains shown, IgG1) VH: QMQLVESGGGVVQPGQSLRLSCAASGFEFRTYGMHWVRQAPGKGLEWVAVIWDDGSNTHYADSVKGRFTITRDNSKNTLNLQMNSLRAEDTAVYYCVRAPQWYLTAEAFDLWGQGTMVTVSS VL: SYVLTQPPSVSVAPGETATITCGGNLIGARLVHWYQQKPGQAPVLVIYDDSDRPSHIPERFSGSNSGNTATLTISRVEAGDEADYYCQVWDYSADTMVFGGGTKLTVL",
    "IC50 TARC, nM": 0.823
  },
  {
    "binder": "BDG38.096 (antibody, V domains shown, IgG1) VH: QMQLVESGGGVVQPGRSLRLSCAASGFEFRTYGMHWVRQAPGKGLEWVAVIWDDGSNTHYADSVKGRFTITRDNSKNTLNLQMNSLRVEDTAVYYCVRAPQWYLTAEAFDLWGQGTMVTVSS VL: SYILTQPPSVSVAPGETARITCGGNLIGARLVHWYQQKPGQAPVLVIYDDSDRPSRIPERFSGSNIGNTATLTISRVEEGDEADYYCQVWDYSSDSMVFGGGTKLTVL",
    "IC50 TARC, nM": 23.4
  }
]

Kindly review the next binder as well.
I'd like to know its IC50 TARC. The binder in question is BDG38.080 (antibody, V domains shown, IgG1) VH: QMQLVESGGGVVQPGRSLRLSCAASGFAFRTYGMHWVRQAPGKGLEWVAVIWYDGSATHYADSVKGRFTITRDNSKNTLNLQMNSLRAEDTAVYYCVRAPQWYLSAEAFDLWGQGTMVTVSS VL: SYVLTQPPSVSVAPGETATITCGGNLIGAYLVHWYQQKPGQAPVLVIYDDSDRPDRIPERFSGSNSGNTATLTISRVEAGDEADYYCQVWDHNTNHMVFGGGTKLTVL
0.79
